Taken from patent US20250367173A1.

For each record, write down the corresponding pIC50.
- target.or.test.system: ENPP-1 (Homo sapiens, UniProt P22413)
- Construct: purchased Biovendor RD172124100
- Sequence (P22413 whole entry): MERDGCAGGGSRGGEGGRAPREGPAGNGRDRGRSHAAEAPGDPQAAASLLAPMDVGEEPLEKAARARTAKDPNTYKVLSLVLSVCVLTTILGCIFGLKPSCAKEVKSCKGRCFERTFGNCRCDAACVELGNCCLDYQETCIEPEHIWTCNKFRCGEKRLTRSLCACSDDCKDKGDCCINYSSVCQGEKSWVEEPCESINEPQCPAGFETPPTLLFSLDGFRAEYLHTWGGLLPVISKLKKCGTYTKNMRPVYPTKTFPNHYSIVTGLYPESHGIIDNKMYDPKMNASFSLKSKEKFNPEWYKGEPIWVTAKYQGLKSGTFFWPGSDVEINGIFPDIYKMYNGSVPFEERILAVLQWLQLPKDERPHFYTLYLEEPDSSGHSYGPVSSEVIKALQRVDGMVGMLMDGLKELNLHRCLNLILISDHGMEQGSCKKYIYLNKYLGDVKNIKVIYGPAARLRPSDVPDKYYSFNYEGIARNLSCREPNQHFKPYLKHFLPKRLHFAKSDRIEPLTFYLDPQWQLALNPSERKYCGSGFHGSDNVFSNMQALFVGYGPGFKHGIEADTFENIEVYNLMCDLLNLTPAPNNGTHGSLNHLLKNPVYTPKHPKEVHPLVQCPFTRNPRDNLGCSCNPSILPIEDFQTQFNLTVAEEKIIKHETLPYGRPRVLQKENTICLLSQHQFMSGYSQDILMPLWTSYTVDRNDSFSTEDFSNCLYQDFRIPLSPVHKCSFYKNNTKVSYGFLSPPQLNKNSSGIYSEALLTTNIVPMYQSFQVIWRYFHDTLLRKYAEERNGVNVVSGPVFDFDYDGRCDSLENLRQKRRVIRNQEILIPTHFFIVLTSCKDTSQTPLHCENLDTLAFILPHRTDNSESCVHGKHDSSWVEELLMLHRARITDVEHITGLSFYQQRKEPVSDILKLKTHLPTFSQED
- assay: ENPP-1 enzyme assay with cGAMP substrate
- Format: biochemical
- conditions: 200 pM ENPP-1, 10 μM substrate 2′3′-cGAMP, pH 7.4, 37° C., 30 minutes, Transcreener AMP2/GMP2 kit; average IC50
pIC50: −log10 of the molar value.

A selection of reference data follows.
COc1ccc2c3c(n(Cc4ccc(S(N)(=O)=O)cc4)c2c1)CCNC3; 5.00 to 6.00
COc1ccc2c3cnncc3n(Cc3ccc(S(N)(=O)=O)cc3)c2c1; 5.00 to 6.00
NS(=O)(=O)c1ccc(Cn2c3ccc(Cl)cc3c3ncccc32)cc1; > 6.00
COc1ccc2c(c1)c1ncccc1n2Cc1ccc(S(=N)(=O)Cc2ccccc2)cc1 (stereo not drawn); > 6.00
COc1cc2c3ncccc3n(Cc3ccc(P(=O)(O)O)cc3)c2cc1F; > 6.00
COc1ccc2c(c1)c1ncccc1n2Cc1ccc(NS(N)(=O)=O)cc1; > 6.00
COc1ccc2c(c1)c1cccnc1n2Cc1ccc(S(N)(=O)=O)cc1; 5.00 to 6.00
COc1cnc2c(c1)c1c(n2Cc2ccc(S(N)(=O)=O)cc2)CNCC1; < 5.00

Quick batch: pIC50 for everything below.
1. COc1cc(C)c2c(c1)c1ncccc1n2Cc1ccc(S(N)(=O)=O)cc1
2. COc1ccc2c(c1)c1c(n2Cc2ccc(S(N)(=O)=O)cc2)CCCN1
3. COc1ccc2c(c1)c1cnccc1n2Cc1ccc(S(N)(=O)=O)cc1

Result:
["> 6.00", "> 6.00", "> 6.00"]
